Target: Cytochrome P450 1A2 (Homo sapiens)
Experiment: p450-cyp1a2 (AID 410); further: potency means the concentration at half of the fitted maximal effect
Conditions: recombinant CYP1A2, luciferin-ME demethylation, luminescence; series mostly up to 57 µM
Records with an inconclusive call do not appear. Calls of active or inactive are those of the source. The call rests on the fitted dose curve.
Measure Name: Potency

| Smiles Code | Target Entity | Potency |
| --- | --- | --- |
| COc1ccccc1OC[C@H](O)COC(N)=O | Cytochrome P450 1A2 (Homo sapiens) | 10 µM (active) |
| CN(C)C(=O)c1ccc(-c2nccc(NCc3cccnc3)n2)cc1 | Cytochrome P450 1A2 (Homo sapiens) | 15.8 µM (active) |
| CC(C)CN1CCC2(CC1)CCN(C(=O)c1cccc(F)c1)CC2 | Cytochrome P450 1A2 (Homo sapiens) | inactive |
| CC(C)CN1CCCC2(CCN(C(=O)c3csnn3)CC2)C1 | Cytochrome P450 1A2 (Homo sapiens) | inactive |
| CO[C@]1(NC(=O)CSCC#N)C(=O)N2C(C(=O)O)=C(CSc3nnnn3C)CS[C@H]21 | Cytochrome P450 1A2 (Homo sapiens) | inactive |

**Q:** Field request: Potency | item: CN(C)CCO[C@](C)(c1ccccc1)c1ccccn1
**A:** inactive

**Q:** Field request: Potency | item: Cc1cnc(CNc2ccnc(-c3ccccc3C)n2)cn1
**A:** 12.6 µM (active)

###

Biological target: Cytochrome P450 3A4 (Homo sapiens) (UniProt P08684)
Sequence (P08684 whole entry, looked up): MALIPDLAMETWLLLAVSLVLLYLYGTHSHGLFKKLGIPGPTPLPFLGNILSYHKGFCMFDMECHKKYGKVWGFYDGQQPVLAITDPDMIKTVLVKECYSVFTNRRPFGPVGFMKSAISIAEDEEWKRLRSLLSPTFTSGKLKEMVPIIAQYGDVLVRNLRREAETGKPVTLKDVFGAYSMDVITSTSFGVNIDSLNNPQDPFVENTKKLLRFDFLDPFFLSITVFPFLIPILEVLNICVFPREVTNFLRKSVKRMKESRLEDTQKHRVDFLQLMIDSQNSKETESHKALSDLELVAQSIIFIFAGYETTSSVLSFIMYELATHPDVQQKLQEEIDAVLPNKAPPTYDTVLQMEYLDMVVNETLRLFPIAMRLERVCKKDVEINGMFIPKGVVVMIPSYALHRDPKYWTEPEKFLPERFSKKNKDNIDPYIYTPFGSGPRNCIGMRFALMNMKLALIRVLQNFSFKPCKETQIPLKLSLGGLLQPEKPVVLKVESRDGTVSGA
Assay: qHTS Assay for Inhibitors and Substrates of Cytochrome P450 3A4 (AID 884); further: nearly all actives have a fitted effect of over 50% in size; further: potency means the concentration at half of the fitted maximal effect
Details: recombinant CYP3A4, Luciferin-PPXE luminescence; series mostly up to 57.1 µM
Results filed as inconclusive are left out. Active and inactive are the calls of the source. Calls follow the shape of the dose curve; as a rule, active = well fitted inhibition curve with a large enough effect; inconclusive = small, poorly fitted or top-dose-only effect; inactive = no such curve, though single readings can be large or run the other way.
Measure Name: Potency

| Smiles Code | Potency |
| --- | --- |
| COc1ccc(CNc2ncnc3ccc(-c4ccc(N(C)C)cc4)cc23)c(OC)c1 | 3.98 µM (active) |
| Cc1ccccc1-c1nc(NC2CC2)c2ccccc2n1 | 3.98 µM (active) |
| COc1cccc(Cn2c(=O)c(-c3ccc(Cl)cc3)nc3cnc(N4CCN(C)CC4)nc32)c1 | inactive |
| COC(=O)c1c(OC)cc2c(c1C)Oc1c(Cl)c(OC(C)=O)c(Cl)c(C)c1C(=O)O2 | 15.8 µM (active) |
| COc1ccccc1CCn1c(=O)c(-c2ccc(Cl)cc2)nc2cncnc21 | 3.98 µM (active) |

**Q:** Field request: Potency | item: COc1cccc(-c2cncnc2NCc2cccnc2)c1
**A:** 1.26 µM (active)

**Q:** Field request: Potency | item: O=C(c1ccncc1)N1CCC[C@@]2(CCN(c3ccccc3)C2)C1
**A:** 3.16 µM (active)

**Q:** Field request: Potency | item: Cc1cccc(CNc2ncncc2-c2ccc(C(=O)N(C)C)cc2)c1
**A:** 0.631 µM (active)

**Q:** Field request: Potency | item: C=C[C@](C)(O)CCC=C(C)C
**A:** inactive

**Q:** Field request: Potency | item: O=C(Nc1ccccc1)N1CCC2(CC1)CCN(C(=O)c1cccc(F)c1)CC2
**A:** inactive

**Q:** Field request: Potency | item: COc1ccc(CNc2nc(-c3cccc(NS(C)(=O)=O)c3)nc3ccccc23)c(OC)c1
**A:** 2.51 µM (active)

###

# reported activity, negative = inhibition; entries follow
Experiment: qHTS profiling for inhibitors of Plasmodium falciparum proliferation (AID 504749);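 further: 0% = DMSO vehicle and full inhibition = artemisinin control; nearly all actives have a fitted effect of over 60% in size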
Settings: P. falciparum in erythrocytes, SYBR Green DNA, 72 h; at 28.7 µM (top of the series); parasite line B
Records with an inconclusive call do not appear.
Write it as a number; the unit % goes unstated.

Illustrative cases are given below, each with its answer.
| Compound | activity, negative = inhibition / % |
| --- | --- |
| COCCc1ccc(OC[C@H](O)CNC(C)C)cc1 | 3.39 |
| CC[C@]1(C)CC(=O)NC1=O | 5.48 |
| CC(=O)OCC1=C(C(=O)O)N2C(=O)[C@@H](NC(=O)CSc3ccncc3)[C@@H]2SC1 | -4.99 |

Now for another entry.
**Q:** Field request: activity, negative = inhibition | item: CCCN[C@@H](C)C(=O)Nc1ccccc1C
**A:** 9.71
